Cited source for all entries: ChEMBL document CHEMBL1136640

tested on: Torpedo; assay: Effect on Torpedo nicotinic ACh receptor responses at 0 min determined by measuring percentage of original amplitude
METRIC_NAME: Original amplitude (%)

> print(dat)
                                   molecule         metric.name  unit.abbrev  experimental.result
1          CC/C=C\C/C=C\C/C=C\CCCCCCCC(=O)O  Original amplitude            %                   77
2  CCCCCCCCC1CC1CCCCCCCC(=O)O (stereo not drawn)  Original amplitude            %                  117
3     CCCCC/C=C\C/C=C\C/C=C\C/C=C\CCCC(=O)O  Original amplitude            %                   78
4  CCCCCC1CC1CC1CC1CCCCCCCC(=O)O (stereo not drawn) [FR-236924]  Original amplitude            %                  122
5  CCCCCC1CC1CC1CC1CC1CC1CC1CC1CCCC(=O)O (stereo not drawn)  Original amplitude            %                   88

[P] CCCCCCCC/C=C\CCCCCCCC(=O)O
[Q] CCCCC/C=C\C/C=C\CCCCCCCC(=O)O
Q. Just curious, which one has the larger Original amplitude reading, P or Q ? Answer by stating the label of the chosen item.
A. P
(P: 108%, Q: 72%)
